Recorded EC50 for the following substances
# tgt: human GIPR (Homo sapiens)
# Construct: host or cells: COS-7
# Sequence (P48546 22-466): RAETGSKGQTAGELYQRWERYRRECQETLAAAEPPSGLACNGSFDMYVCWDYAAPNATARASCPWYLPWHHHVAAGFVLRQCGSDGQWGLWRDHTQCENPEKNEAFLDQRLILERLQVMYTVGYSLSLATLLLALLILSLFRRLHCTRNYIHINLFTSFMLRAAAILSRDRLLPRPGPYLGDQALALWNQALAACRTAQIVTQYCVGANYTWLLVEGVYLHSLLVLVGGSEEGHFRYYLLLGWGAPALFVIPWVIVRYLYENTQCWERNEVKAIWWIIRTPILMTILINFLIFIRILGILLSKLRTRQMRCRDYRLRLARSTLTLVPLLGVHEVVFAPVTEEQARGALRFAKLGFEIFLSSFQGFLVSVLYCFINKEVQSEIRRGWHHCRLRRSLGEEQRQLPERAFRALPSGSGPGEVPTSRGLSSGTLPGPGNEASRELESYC
# assay.explanation: cAMP assay (HitHunter) in transiently transfected COS-7 cells expressing human GIPR
# Assay type: cell-based
# condition: cAMP, COS-7 cells, human GIPR
*1 amine or outer side, *2 acyl side, *3 side chain or, on linkers, in order; H or OH if unused. Where no end group is shown, it is not given here. Side-chain parts run from the residue outwards. [ ]: non-standard residue; d: D form. The star is where a group is joined. C18 diacid = O=C(O)CCCCCCCCCCCCCCCCC(=O)*; γGlu = O=C(O)[C@H](CCC(=O)[*:2])N[*:1]; AEEA = NCCOCCOCC(=O)O; Aib = CC(C)(N)C(=O)O
Quick note: give the figure in nM, leave out the unit.

Solved cases (3 shown):
HADGTFTSDYSTILDKLAARDFINWLIQTKGKKNDWKHNITQK([AEEA-AEEA-γGlu-C18 diacid])-OH [Compound 26] :: 0.316
HADGTFTSDYST[Aib]LDK([AEEA-AEEA-γGlu-C18 diacid])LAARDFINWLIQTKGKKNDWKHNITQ-OH [Compound 22] :: 1.12
HADGTFTSDYSIILDK([AEEA-AEEA-γGlu-C18 diacid])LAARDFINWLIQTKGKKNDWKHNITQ-OH [Compound 20] :: 0.126

The recorded EC50 for entry H-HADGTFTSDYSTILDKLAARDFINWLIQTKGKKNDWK([AEEA-AEEA-γGlu-C18 diacid])HNITQ-OH [Compound 25] equals 0.398

The recorded EC50 for HADGTFTSDYSTILDKLAARDFINWLIQTKGKK([AEEA-AEEA-γGlu-C18 diacid])NDWKHNITQ-OH [Compound 24] is 0.398

Query HADGTFTSDYSTILDK([AEEA-AEEA-γGlu-C18 diacid])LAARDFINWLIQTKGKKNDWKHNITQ-OH [Compound 21] yields EC50 of 0.398
